Exercise: for every item that follows, state its recorded IC50.
test_system: GST tagged IRAK-4 (Homo sapiens (Human))
method_summary: IRAK-4 Kinase Assay (IMAP fluorescence polarization)
Format: biochemical
measurement_context: 100 μM ATP, 30 minutes at 25° C.

Endpoint output: IC50 of CS(=O)(=O)N1CCC(c2cc(NC(=O)c3cnn4cccnc34)n(-c3ccc(C4CC4)cc3)n2)CC1 . Value? < 100 nM

What value of IC50 has been reported for the following compound? COc1ccc(-n2nc(C3CCN(S(C)(=O)=O)CC3)cc2NC(=O)c2cnn3cccnc23)c(F)c1 < 100 nM

What value of IC50 has been recorded for this entry: Cc1ccc(-n2nc(-c3ccc(C(=O)N(C)C)cc3)cc2NC(=O)c2cnn3cccnc23)cc1 < 100 nM

Value lookup for IC50; key = COc1ccc(-n2nc(C3CCN(C(C)C)CC3)cc2NC(=O)c2cnn3cccnc23)cc1 < 100 nM

Which IC50 value is on record for Cc1ccc(-n2nc(-c3ccc(S(=O)(=O)N4CCC4)cc3)cc2NC(=O)c2cnn3cccnc23)cc1 ? < 100 nM

Data request, read-out IC50, for Cc1ccc(-n2nc(C3CCN(CC4CC4)CC3)cc2NC(=O)c2cnn3cccnc23)cc1 < 100 nM

Given O=C(Nc1cc(C2CCNCC2)nn1-c1ccc(C2CC2)cn1)c1cnn2cccnc12 , state its recorded IC50. < 100 nM

Endpoint output: IC50 of Cc1ccc(-n2nc(C3CCN(S(C)(=O)=O)CC3)cc2NC(=O)c2cnn3cccnc23)cc1 . Value? < 100 nM

---

test_system: GST tagged IRAK-4 (Homo sapiens (Human), UniProt Q9NWZ3)
Sequence (Q9NWZ3 whole entry): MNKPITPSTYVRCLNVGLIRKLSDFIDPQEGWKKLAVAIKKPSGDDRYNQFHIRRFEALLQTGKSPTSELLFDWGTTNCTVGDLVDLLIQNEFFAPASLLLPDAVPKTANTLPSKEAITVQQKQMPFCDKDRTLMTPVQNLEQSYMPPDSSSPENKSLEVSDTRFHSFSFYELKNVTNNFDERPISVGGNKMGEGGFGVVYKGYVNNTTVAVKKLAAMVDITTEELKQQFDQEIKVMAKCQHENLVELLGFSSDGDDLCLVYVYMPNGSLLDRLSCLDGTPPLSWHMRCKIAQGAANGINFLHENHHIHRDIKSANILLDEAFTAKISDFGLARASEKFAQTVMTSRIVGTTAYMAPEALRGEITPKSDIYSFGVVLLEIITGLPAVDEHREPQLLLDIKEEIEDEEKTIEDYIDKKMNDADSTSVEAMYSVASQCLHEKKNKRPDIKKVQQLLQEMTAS
method_summary: IRAK-4 Kinase Assay (IMAP fluorescence polarization)
Format: biochemical
measurement_context: 100 μM ATP, 30 minutes at 25° C.; μM
measured_quantity: IC50

Record request: IC50 value, item Cc1ccc(-n2nc(C3CCN(S(=O)(=O)c4ccc5ncsc5c4)CC3)cc2NC(=O)c2cnn3cccnc23)cc1 < 1 µM

Tell me the measured IC50 of Cc1ccc(-n2nc(C3CCN(Cc4cccnc4)CC3)cc2NC(=O)c2cnn3cccnc23)cc1 , please. < 1 µM

Form field: reported IC50 of Cc1ccc(-n2nc(C3CCN(S(=O)(=O)c4ccc(F)cc4)CC3)cc2NC(=O)c2cnn3cccnc23)cc1 < 1 µM

Item under review: COc1ccc(-c2cc(NC(=O)c3cnn4cccnc34)n(-c3ccc(C)cc3)n2)cc1 . Reported IC50? < 1 µM

---

test_system: GST tagged IRAK-4 (Homo sapiens (Human), UniProt Q9NWZ3)
method_summary: IRAK-4 Kinase Assay (IMAP fluorescence polarization)
Type: biochemical
measurement_context: 100 μM ATP, 30 minutes at 25° C.
Provide the reported IC50 of each item.

For the compound shown here, Cc1ccc(-n2nc(C3CCN(C4CCCCC4)CC3)cc2NC(=O)c2cnn3cccnc23)cc1 , give the reported IC50. < 100 nM

Reported IC50 for Cc1ccc(-n2nc(C3CN(Cc4cccnc4)C3)cc2NC(=O)c2cnn3cccnc23)cc1 : what is it? < 100 nM

Which IC50 is listed for COc1ccc(-c2cc(NC(=O)c3cnn4cccnc34)n(-c3ccc(C)cc3)n2)cc1OC ? < 100 nM

Fill in: IC50 of CN1CCC(c2cc(NC(=O)c3cnn4cccnc34)n(-c3ccc(C4CC4)cn3)n2)CC1 is ___ < 100 nM

What measured IC50 goes with Cc1ccc(-n2nc(N3CCN(CC(C)C)CC3)cc2NC(=O)c2cnn3cccnc23)nc1 ? < 100 nM

Which value of IC50 has been reported for Cc1ccc(-n2nc(C3CCN(C4CCC(C#N)CC4)CC3)cc2NC(=O)c2cnn3cccnc23)cc1 (stereo not drawn) in the records? < 100 nM

Item Cc1ccc(-n2nc(-c3ccc(S(=O)(=O)C4CC4)cc3)cc2NC(=O)c2cnn3cccnc23)cc1 has what recorded IC50? < 100 nM

What does the data say about its IC50? Entry: COc1ncccc1CN1CC(c2cc(NC(=O)c3cnn4cccnc34)n(-c3ccc(C)cc3)n2)C1 < 100 nM

// IC50 lookup, key: Cc1ccc(-n2nc(-c3ccc(S(C)(=O)=O)cc3C(F)(F)F)cc2NC(=O)c2cnn3cccnc23)cc1 100 nM

Record request: IC50 value, item CC(C)(N)c1ccc(-n2nc(C3CCN(S(C)(=O)=O)CC3)cc2NC(=O)c2cnn3cccnc23)nc1 < 100 nM

What value of measured IC50 is listed for Cc1ccc(-n2nc(C3CCN(C4CC5(CCCC5)C4)CC3)cc2NC(=O)c2cnn3cccnc23)cc1 ? < 100 nM

# input compound: CCN(CC)S(=O)(=O)c1ccc(-c2cc(NC(=O)c3cnn4cccnc34)n(-c3ccc(C)cc3)n2)cc1 ; wanted: its IC50 < 100 nM

Which value of IC50 has been reported for Cc1ccc(-n2nc(C3CCC(C(=O)N(C)C)CC3)cc2NC(=O)c2cnn3cccnc23)cc1 (stereo not drawn) in the records? < 100 nM

Reported IC50, compound COc1ccc(-n2nc(C3CCN(S(=O)(=O)C4CC4)CC3)cc2NC(=O)c2cnn3cccnc23)cc1 : ____ < 100 nM

Report IC50 for Cc1ccc(-n2nc(N3CCN(C4CCCC4)CC3)cc2NC(=O)c2cnn3cccnc23)nc1 please. < 100 nM

---

test_system: UniProt Q9NWZ3
method_summary: IRAK-4 Kinase Assay (IMAP fluorescence polarization)
Format: biochemical
Experimental: The kinase activity of IRAK-4 is determined by its ability to catalyze the phosphorylation of a fluorescent polypeptide substrate. The extent of phosphorylation is measured using the IMAP technology (Molecular Devices) where the phosphorylated fluorescent substrate binds to the large M(III)-based nanoparticles which reduces the rotational speed of the substrate and thus increases its fluorescent polarization (FP). […]
pIC50: −log10 of the molar value.
measured_quantity: pIC50

For the compound shown here, Cc1ccc(-n2nc(C3CCN(S(C)(=O)=O)CC3)cc2NC(=O)c2cnn3cccnc23)cn1 , give the reported pIC50. > 6.00

---

Assign IC50 to each entry below.
test_system: GST tagged IRAK-4 (Homo sapiens (Human))
method_summary: IRAK-4 Kinase Assay (IMAP fluorescence polarization)
Type: biochemical
measurement_context: 100 μM ATP, 30 minutes at 25° C.; μM

Name the reported IC50 value associated with the molecule COC(=O)C1CCC(c2cc(NC(=O)c3cnn4cccnc34)n(-c3ccc(C)cc3)n2)CC1 (centres unmarked) > 1 µM

Consider the molecule shown here: Cc1ccc(-n2nc(C3CCN(C4CN(C(=O)NC(C)(C)C)C4)CC3)cc2NC(=O)c2cnn3cccnc23)cc1 What is its recorded IC50? < 1 µM

# input molecule: COc1ccc(-n2nc(-c3ccncc3)cc2NC(=O)c2cnn3cccnc23)cc1 ; wanted: its IC50 < 1 µM

Reported IC50 for Cc1ccc(-n2nc(C3CCN(C(N)=O)CC3)cc2NC(=O)c2cnn3cccnc23)cc1 : what is it? < 1 µM

Quick check: IC50 of Cc1ccc(-n2nc(-c3cncc(CO)c3)cc2NC(=O)c2cnn3cccnc23)cc1 ? < 1 µM

Fill in the blank: the reported IC50 of CCC(=O)N1CC(N2CCC(c3cc(NC(=O)c4cnn5cccnc45)n(-c4ccc(C)cc4)n3)CC2)C1 is ____. < 1 µM

Name the reported IC50 value associated with the molecule Cc1ccc(-n2nc(C3CCC(C(F)(F)F)CC3)cc2NC(=O)c2cnn3cccnc23)cc1 (centres unmarked) > 1 µM

Form field: reported IC50 of Cc1ccc(-n2nc(C3(C)CC3)cc2NC(=O)c2cnn3cccnc23)nc1 > 1 µM

---

test_system: GST tagged IRAK-4 (Homo sapiens (Human), UniProt Q9NWZ3)
method_summary: IRAK-4 Kinase Assay (IMAP fluorescence polarization)
Format: biochemical
measurement_context: 100 μM ATP, 30 minutes at 25° C.; μM
So I've got a bunch of molecules here, and I need their IC50 values.

API: value(readout= IC50, system= GST tagged IRAK-4 (Homo sapiens (Human), UniProt Q9NWZ3), query= CC(C)N1CCC(c2cc(NC(=O)c3cnn4cccnc34)n(-c3ncc[nH]3)n2)CC1 [Example 187] ) < 1 µM

Quick check: IC50 on GST tagged IRAK-4 (Homo sapiens (Human), UniProt Q9NWZ3), item Cc1cnc(-n2nc(C3CCN(S(=O)(=O)C4CC4)CC3)cc2NC(=O)c2cnn3cccnc23)nc1 [Example 171] ? < 1 µM

Please state recorded IC50 (tested on GST tagged IRAK-4 (Homo sapiens (Human), UniProt Q9NWZ3)) of COc1cccc(S(=O)(=O)N2CCC(c3cc(NC(=O)c4cnn5cccnc45)n(-c4ccc(C)cc4)n3)CC2)c1 [Example 385] > 1 µM

Lookup: IC50 / GST tagged IRAK-4 (Homo sapiens (Human), UniProt Q9NWZ3) / CS(=O)(=O)N1CCC(c2cc(NC(=O)c3cnn4cccnc34)n(-c3ccc(Cl)cc3F)n2)CC1 [Example 29] < 1 µM
